system: 966289-007-R4-J1-PDC complex spheroid viability; assay: Anticancer human tumor 966289-007-R4-J1-PDC patient-derived pancreatic adenocarcinoma cell line growth inhibition [RAS]; settings: second compound 3.16 µM; first compound 3.16 µM; hits give low values
viability, T/C vs 90%: less than gives Condition met; not less than gives Condition not met.

Solved cases (5 shown):
1) CC1(O)CCCC1n1c(=O)c(C(F)F)cc2cnc(NC3CCN(S(C)(=O)=O)CC3)nc21 (stereo not drawn) + C#Cc1c(F)ccc2cc(O)cc(-c3ncc4c(N5CC6CCC(C5)N6)nc(OCC56CCCN5CC(F)C6)nc4c3F)c12    Condition met
2) CC(Nc1ccc2c(c1)OCCn1cc(N3C(=O)OCC3C(F)F)nc1-2)C(N)=O (stereo not drawn) + C#Cc1c(F)ccc2cc(O)cc(-c3ncc4c(N5CC6CCC(C5)N6)nc(OCC56CCCN5CC(F)C6)nc4c3F)c12    Condition not met
3) C[C@@H](NC(=O)c1ncnc(N)c1Cl)c1ncc(C(=O)Nc2cc(C(F)(F)F)c(Cl)cn2)s1 + C#Cc1c(F)ccc2cc(O)cc(-c3ncc4c(N5CC6CCC(C5)N6)nc(OCC56CCCN5CC(F)C6)nc4c3F)c12    Condition not met
4) CC(=O)OC12COC1CC(O)C1(C)C(=O)C(O)C3=C(C)C(OC(=O)C(O)C(NC(=O)OC(C)(C)C)c4ccccc4)CC(O)(C(OC(=O)c4ccccc4)C21)C3(C)C (stereo not drawn) + C#Cc1c(F)ccc2cc(O)cc(-c3ncc4c(N5CC6CCC(C5)N6)nc(OCC56CCCN5CC(F)C6)nc4c3F)c12    Condition met
5) CCC(CC)c1cc(NC2CCC(N)C2)n2nccc2n1 (stereo not drawn) + C#Cc1c(F)ccc2cc(O)cc(-c3ncc4c(N5CC6CCC(C5)N6)nc(OCC56CCCN5CC(F)C6)nc4c3F)c12    Condition met

Shifting focus to the compound that follows.
In plain terms, does CC(C)NCC(C(=O)N1CCN(c2ncnc3c2C(C)CC3O)CC1)c1ccc(Cl)cc1 (stereo not drawn) + C#Cc1c(F)ccc2cc(O)cc(-c3ncc4c(N5CC6CCC(C5)N6)nc(OCC56CCCN5CC(F)C6)nc4c3F)c12 come in under 90% for viability, T/C? Condition met

###

test system: 966289-007-R4-J1-PDC complex spheroid viability; assay: Anticancer human tumor 966289-007-R4-J1-PDC cell line growth inhibition [RAS]; conditions: second compound 0.0949 µM; first compound 0.1 µM; hits give low values;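 also: spheroids exposed to agents for one week before readout; percent viability relative to DMSO vehicle control wells as 100%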
measure: viability, T/C (%)
Quick reminder: number only, in %, skip the unit.

Examples with their reported viability, T/C follow.
1. O=C(c1ccc(F)c(F)c1Nc1ccc(I)cc1F)N1CC(O)([C@@H]2CCCCN2)C1 + CCn1c(-c2cccnc2C(C)OC)c2c3cc(ccc31)N1CCOC(CC(NC(=O)C(C(C)C)N(C)C(=O)C3(F)CCN(C(=O)C#CC(C)(C)N(C)C)CC3)C(=O)N3CCCC(N3)C(=O)OCC(C)(C)C2)C1    82.5
2. CC(Nc1ccc2c(c1)OCCn1cc(N3C(=O)OCC3C(F)F)nc1-2)C(N)=O (stereo not drawn) + CCn1c(-c2cc(N3CCN(C)CC3)cnc2C(C)OC)c2c3cc(ccc31)-c1csc(n1)CC(NC(=O)C1CC1C)C(=O)N1CCCC(N1)C(=O)OCC(C)(C)C2    119
3. C=CC(=O)Nc1cc(Nc2nccc(-c3cn(C)c4ccccc34)n2)c(OC)cc1N(C)CCN(C)C + CCn1c(-c2cccnc2C(C)OC)c2c3cc(ccc31)N1CCOC(CC(NC(=O)C(C(C)C)N(C)C(=O)C3(F)CCN(C(=O)C#CC(C)(C)N(C)C)CC3)C(=O)N3CCCC(N3)C(=O)OCC(C)(C)C2)C1    67.8
4. Cc1nc(N2CCC3(CC2)COC(C)C3N)c(CO)nc1Sc1ccnc(N)c1Cl (stereo not drawn) + CCn1c(-c2cc(N3CCN(C)CC3)cnc2C(C)OC)c2c3cc(ccc31)-c1csc(n1)CC(NC(=O)C1CC1C)C(=O)N1CCCC(N1)C(=O)OCC(C)(C)C2    131
5. CC(Nc1ccc2c(c1)OCCn1cc(N3C(=O)OCC3C(F)F)nc1-2)C(N)=O (stereo not drawn) + CCn1c(-c2cccnc2C(C)OC)c2c3cc(ccc31)N1CCOC(CC(NC(=O)C(C(C)C)N(C)C(=O)C3(F)CCN(C(=O)C#CC(C)(C)N(C)C)CC3)C(=O)N3CCCC(N3)C(=O)OCC(C)(C)C2)C1    91.7

Would you mind telling me what viability, T/C value was observed for CC(C)NCC(C(=O)N1CCN(c2ncnc3c2C(C)CC3O)CC1)c1ccc(Cl)cc1 (stereo not drawn) + CCn1c(-c2cccnc2C(C)OC)c2c3cc(ccc31)N1CCOC(CC(NC(=O)C(C(C)C)N(C)C(=O)C3(F)CCN(C(=O)C#CC(C)(C)N(C)C)CC3)C(=O)N3CCCC(N3)C(=O)OCC(C)(C)C2)C1 ? 94.5

What value of viability, T/C has been recorded for this entry: Nc1ccn(C2OC(CO)C(O)C2(F)F)c(=O)n1 (stereo not drawn) + CCn1c(-c2cccnc2C(C)OC)c2c3cc(ccc31)N1CCOC(CC(NC(=O)C(C(C)C)N(C)C(=O)C3(F)CCN(C(=O)C#CC(C)(C)N(C)C)CC3)C(=O)N3CCCC(N3)C(=O)OCC(C)(C)C2)C1 0.82

Which viability, T/C is listed for CCN1CCN(Cc2ccc(Nc3ncc(F)c(-c4cc(F)c5nc(C)n(C(C)C)c5c4)n3)nc2)CC1 + CCn1c(-c2cc(N3CCN(C)CC3)cnc2C(C)OC)c2c3cc(ccc31)-c1csc(n1)CC(NC(=O)C1CC1C)C(=O)N1CCCC(N1)C(=O)OCC(C)(C)C2 ? 95.9

All figures here come from PubChem BioAssay AID2060897.
